These data points were gathered from ChEMBL document CHEMBL2331284.

- experiment notes: Selectivity ratio of IC50 for equine serum BChE to IC50 for electric eel AChE
observable: Ratio IC50
Give a plain numeric answer without units written out.

* O=[N+]([O-])c1ccccc1-c1nnc(-c2ccc(O)cc2O)s1 | 27

Please indicate Ratio IC50 recorded for Oc1ccc(-c2nnc(-c3cc(Cl)ccc3Cl)s2)c(O)c1
0.17

Please indicate Ratio IC50 recorded for Oc1ccc(-c2nnc(-c3ccccc3Br)s2)c(O)c1
4.8

Please indicate Ratio IC50 recorded for Cc1cc(-c2nnc(-c3ccc(O)cc3O)s2)ccc1[N+](=O)[O-]
7.1

Please indicate Ratio IC50 recorded for COc1ccccc1-c1nnc(-c2ccc(O)cc2O)s1
7.9

Please indicate Ratio IC50 recorded for COc1ccc(-c2nnc(-c3ccc(O)cc3O)s2)cc1
44.2

Please indicate Ratio IC50 recorded for Oc1ccc(-c2nnc(-c3ccc(C(F)(F)F)cc3)s2)c(O)c1
294

Please indicate Ratio IC50 recorded for Oc1ccc(-c2nnc(-c3ccc(O)c(O)c3)s2)c(O)c1
11.4

====

// endpoint IC50 / system Acetylcholinesterase (Electrophorus electricus)

// solved cases for IC50 follow
* Oc1ccc(-c2nnc(-c3ccccc3F)s2)c(O)c1 | 1070 nM
* COc1cccc(-c2nnc(-c3ccc(O)cc3O)s2)c1 | 1870 nM
* Oc1ccc(-c2nnc(-c3ccccc3Cl)s2)c(O)c1 | 1550 nM

# assay system Acetylcholinesterase (Electrophorus electricus): give IC50 of Cc1cccc(-c2nnc(-c3ccc(O)cc3O)s2)c1
160 nM

# assay system Acetylcholinesterase (Electrophorus electricus): give IC50 of COc1ccc(-c2nnc(-c3ccc(O)cc3O)s2)cc1OC
19300 nM

# assay system Acetylcholinesterase (Electrophorus electricus): give IC50 of Oc1ccc(-c2nnc(-c3ccc(Cl)cc3Cl)s2)c(O)c1
128000 nM

====

- assay target: Acetylcholinesterase (Electrophorus electricus, UniProt O42275)
- Sequence (O42275 whole entry): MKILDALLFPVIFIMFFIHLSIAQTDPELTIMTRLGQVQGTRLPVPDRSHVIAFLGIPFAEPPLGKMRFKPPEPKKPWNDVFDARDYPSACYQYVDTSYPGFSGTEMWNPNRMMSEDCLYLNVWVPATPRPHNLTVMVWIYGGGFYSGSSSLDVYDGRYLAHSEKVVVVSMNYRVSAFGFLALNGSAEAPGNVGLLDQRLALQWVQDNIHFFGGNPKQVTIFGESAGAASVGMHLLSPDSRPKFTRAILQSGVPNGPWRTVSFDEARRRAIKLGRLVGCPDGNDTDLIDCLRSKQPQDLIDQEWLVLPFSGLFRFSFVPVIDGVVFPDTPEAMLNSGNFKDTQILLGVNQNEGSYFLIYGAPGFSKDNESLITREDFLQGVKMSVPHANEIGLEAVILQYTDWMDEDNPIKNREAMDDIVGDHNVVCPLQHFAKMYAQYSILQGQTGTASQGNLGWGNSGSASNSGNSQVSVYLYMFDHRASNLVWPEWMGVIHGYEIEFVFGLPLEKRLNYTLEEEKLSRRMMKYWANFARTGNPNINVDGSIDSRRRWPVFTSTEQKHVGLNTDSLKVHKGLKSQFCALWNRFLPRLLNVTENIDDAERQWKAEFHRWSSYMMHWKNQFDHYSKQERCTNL
IC50 strictly less than 2000 nM = rule met. Otherwise rule not met.

API: query returns whether the compound falls strictly under 2000 nM in IC50. Query: COc1cc(-c2nnc(-c3ccc(O)cc3O)s2)ccc1O
rule not met

API: query returns whether the compound falls strictly under 2000 nM in IC50. Query: Oc1ccc(-c2nnc(-c3cc(Cl)ccc3Cl)s2)c(O)c1
rule not met

API: query returns whether the compound falls strictly under 2000 nM in IC50. Query: Oc1ccc(-c2nnc(-c3ccccc3Br)s2)c(O)c1
rule met

API: query returns whether the compound falls strictly under 2000 nM in IC50. Query: Nc1cccc(-c2nnc(-c3ccc(O)cc3O)s2)c1
rule met

API: query returns whether the compound falls strictly under 2000 nM in IC50. Query: COc1cc(-c2nnc(-c3ccc(O)cc3O)s2)cc(OC)c1OC
rule met

API: query returns whether the compound falls strictly under 2000 nM in IC50. Query: CN(C)C(=O)Oc1cccc([N+](C)(C)C)c1 [NEOSTIGMINE BROMIDE]
rule met

====

- assay target: Cholinesterase (Equus caballus, UniProt P81908)
- Sequence (P81908 whole entry): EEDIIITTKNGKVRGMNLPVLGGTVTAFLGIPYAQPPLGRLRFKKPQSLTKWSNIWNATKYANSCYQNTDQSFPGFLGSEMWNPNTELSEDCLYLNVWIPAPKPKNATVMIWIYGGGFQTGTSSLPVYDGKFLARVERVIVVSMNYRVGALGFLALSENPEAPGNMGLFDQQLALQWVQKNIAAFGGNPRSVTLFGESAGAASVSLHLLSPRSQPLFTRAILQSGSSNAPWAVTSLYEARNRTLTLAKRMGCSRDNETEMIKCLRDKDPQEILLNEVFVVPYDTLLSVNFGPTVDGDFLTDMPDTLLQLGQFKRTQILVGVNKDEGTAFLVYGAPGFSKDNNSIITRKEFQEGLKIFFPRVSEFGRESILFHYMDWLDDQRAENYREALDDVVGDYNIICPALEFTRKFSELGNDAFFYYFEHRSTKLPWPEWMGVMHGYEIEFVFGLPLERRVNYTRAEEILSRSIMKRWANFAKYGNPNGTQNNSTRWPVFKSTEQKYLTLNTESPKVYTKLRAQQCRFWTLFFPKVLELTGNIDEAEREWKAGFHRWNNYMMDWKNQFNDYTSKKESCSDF
- experiment notes: Inhibition of equine serum BChE using butyrylthiocholine iodide as substrate after 10 mins by Ellman method
Measured IC50 of individual entries

// solved cases for IC50 follow
* COc1cccc(-c2nnc(-c3ccc(O)cc3O)s2)c1 | 27.3 µM
* Oc1ccc(-c2nnc(-c3ccc(O)c(O)c3)s2)c(O)c1 | 2.16 µM
* COc1ccccc1-c1nnc(-c2ccc(O)cc2O)s1 | 212 µM
* Oc1ccc(-c2nnc(-c3cc(Cl)cc(Cl)c3)s2)c(O)c1 | > 500 µM
* Cc1cc(-c2nnc(-c3ccc(O)cc3O)s2)ccc1[N+](=O)[O-] | 148 µM

Please indicate IC50 recorded for Nc1cccc(-c2nnc(-c3ccc(O)cc3O)s2)c1
84.3 µM

Please indicate IC50 recorded for O=[N+]([O-])c1cccc(-c2nnc(-c3ccc(O)cc3O)s2)c1
32.1 µM

Please indicate IC50 recorded for Oc1ccc(-c2nnc(-c3ccc(C(F)(F)F)cc3)s2)c(O)c1
26.5 µM

====

- experiment notes: Selectivity ratio of IC50 for equine serum BChE to IC50 for electric eel AChE
Dear colleague, classification is by Ratio IC50, with ranges listed here: class 1 (below 30), class 2 (30 to below 50), class 3 (50 or more)

* COc1cc(-c2nnc(-c3ccc(O)cc3O)s2)cc(OC)c1OC | class 3
* O=[N+]([O-])c1cccc(-c2nnc(-c3ccc(O)cc3O)s2)c1 | class 2
* Oc1ccc(-c2nnc(-c3ccc(O)cc3O)s2)c(O)c1 | class 1
* Cc1cccc(-c2nnc(-c3ccc(O)cc3O)s2)c1 | class 3
* COc1cc(-c2nnc(-c3ccc(O)cc3O)s2)ccc1O | class 1
* COc1ccc(OC)c(-c2nnc(-c3ccc(O)cc3O)s2)c1 | class 2

Class label required: CN(C)C(=O)Oc1cccc([N+](C)(C)C)c1 [NEOSTIGMINE BROMIDE]
class 1

Class label required: Oc1ccc(-c2nnc(-c3ccccc3Cl)s2)c(O)c1
class 3

Class label required: COc1cccc(-c2nnc(-c3ccc(O)cc3O)s2)c1
class 1

====

- assay target: Acetylcholinesterase (Electrophorus electricus)
pIC50: −log10 of the molar value.
Classification field: enter 1 for pIC50 values not below 6, -1 for values below it.

• COc1ccc(-c2nnc(-c3ccc(O)cc3O)s2)cc1 = -1

Check the entry Oc1ccc(-c2nnc(-c3ccc(C(F)(F)F)cc3)s2)c(O)c1 : does pIC50 equal or exceed 6?
1

Check the entry Oc1ccc(-c2nnc(-c3ccc(O)cc3O)s2)c(O)c1 : does pIC50 equal or exceed 6?
-1

Check the entry O=[N+]([O-])c1ccccc1-c1nnc(-c2ccc(O)cc2O)s1 : does pIC50 equal or exceed 6?
-1

Check the entry Oc1ccc(-c2nnc(-c3ccc(O)c(O)c3)s2)c(O)c1 : does pIC50 equal or exceed 6?
1

Check the entry Oc1ccc(-c2nnc(-c3cc(Cl)cc(Cl)c3)s2)c(O)c1 : does pIC50 equal or exceed 6?
-1

Check the entry COc1ccc(OC)c(-c2nnc(-c3ccc(O)cc3O)s2)c1 : does pIC50 equal or exceed 6?
-1

Check the entry COc1ccccc1-c1nnc(-c2ccc(O)cc2O)s1 : does pIC50 equal or exceed 6?
-1

Check the entry Cc1cc(-c2nnc(-c3ccc(O)cc3O)s2)ccc1[N+](=O)[O-] : does pIC50 equal or exceed 6?
-1

====

- experiment notes: Selectivity ratio of IC50 for equine serum BChE to IC50 for electric eel AChE
Measured Ratio IC50 of individual entries

// solved cases for Ratio IC50 follow
* Oc1ccc(-c2nnc(-c3ccc(Cl)cc3Cl)s2)c(O)c1 | > 3.9
* Oc1ccc(-c2nnc(-c3cc(Cl)cc(Cl)c3)s2)c(O)c1 | > 11.1
* Oc1ccc(-c2nnc(-c3ccccc3F)s2)c(O)c1 | > 467

Moving on to another molecule below.
Please indicate Ratio IC50 recorded for COc1ccc(-c2nnc(-c3ccc(O)cc3O)s2)cc1OC
> 25.9

====

- assay target: Cholinesterase (Equus caballus, UniProt P81908)
- experiment notes: Inhibition of equine serum BChE using butyrylthiocholine iodide as substrate after 10 mins by Ellman method
observable: IC50

// solved cases for IC50 follow
- COc1cc(-c2nnc(-c3ccc(O)cc3O)s2)ccc1O: 112 µM
- Cc1cccc(-c2nnc(-c3ccc(O)cc3O)s2)c1: 17 µM
- COc1ccc(OC)c(-c2nnc(-c3ccc(O)cc3O)s2)c1: 63.3 µM
- CN(C)C(=O)Oc1cccc([N+](C)(C)C)c1 [NEOSTIGMINE BROMIDE]: 0.07 µM
- COc1ccc(-c2nnc(-c3ccc(O)cc3O)s2)cc1OC: > 500 µM
- Oc1ccc(-c2nnc(-c3ccccc3Br)s2)c(O)c1: 0.29 µM
- O=[N+]([O-])c1ccccc1-c1nnc(-c2ccc(O)cc2O)s1: 57.3 µM
- Oc1ccc(-c2nnc(-c3ccccc3F)s2)c(O)c1: > 500 µM
- Oc1ccc(-c2nnc(-c3cc(Cl)ccc3Cl)s2)c(O)c1: 19.1 µM
- Oc1ccc(-c2nnc(-c3ccc(Cl)cc3Cl)s2)c(O)c1: > 500 µM

Moving on to another molecule below.
Please indicate IC50 recorded for Oc1ccc(-c2nnc(-c3ccccc3Cl)s2)c(O)c1
196 µM

====

Measured pIC50 of individual entries
- assay target: Cholinesterase (Equus caballus)
- experiment notes: Inhibition of equine serum BChE using butyrylthiocholine iodide as substrate after 10 mins by Ellman method
Would you please state pIC50, meaning minus log10 of the concentration in mol/L, as a bare number?

// solved cases for pIC50 follow
- Oc1ccc(-c2nnc(-c3ccc(O)cc3O)s2)c(O)c1: 4.57
- COc1ccc(-c2nnc(-c3ccc(O)cc3O)s2)cc1: 4.02

Moving on to another compound below.
Please indicate pIC50 recorded for COc1cc(-c2nnc(-c3ccc(O)cc3O)s2)cc(OC)c1OC
3.71
